EXPERIMENTAL DETAILS: Cytotoxicity against African green monkey COS7 cells assessed as inhibition of cell growth at 50 uM relative to control
Assay type: cell-based
CONDITION: chlorocebus aethiops, COS-7 cells
MEASURED ATTRIBUTE: inhibition at 50 µM (%)
State just the number; it will be interpreted in %.

Check out these entries, answers already filled in.
| COMPOUND | UNIT NAME | RECORDED NUMBER |
| --- | --- | --- |
| CCCCCCCCCCCCNC(=O)C1c2cccc(c2)-c2ccc(cc2)OCc2cn(nn2)CCOc2ccc(cc2)CC(=O)N1c1ccc(F)cc1 (centres undefined) | % | 35 |
| O=C(NC1CCCCC1)C1c2cccc(c2)-c2ccc(cc2)OCc2cn(nn2)CCOc2ccc(cc2)CC(=O)N1c1ccc(F)cc1 (centres undefined) | % | 43.2 |
| CCCCCCCCCCCCNC(=O)C1c2cccc(c2)-c2ccc(cc2)OCc2cn(nn2)CCOc2ccc(cc2)CC(=O)N1Cc1ccccc1 (centres undefined) | % | 28.2 |
| CC(C)(C)NC(=O)C1c2cccc(c2)-c2ccc(cc2)OCc2cn(nn2)CCOc2ccc(cc2)CC(=O)N1Cc1ccccc1 (centres undefined) | % | 37.8 |
| CC(C)c1ccc(N2C(=O)Cc3ccc(cc3)OCCCn3cc(nn3)COc3ccc(cc3)-c3cccc(c3)C2C(=O)NC2CCCCC2)cc1 (centres undefined) | % | 48 |

# input // lookup inhibition at 50 µM for CCCCCCCCCCCCNC(=O)C1c2cccc(c2)-c2ccc(cc2)OCc2cn(nn2)CCCOc2ccc(cc2)CC(=O)N1c1ccc(C(C)C)cc1 (centres undefined)
# output 9.9

# input Please do the same for CCCCCCCCCCCCNC(=O)C1c2cccc(c2)-c2ccc(cc2)OCc2cn(nn2)CCOc2ccc(cc2)CC(=O)N1c1ccc(C(C)C)cc1 (centres undefined) as well.
# output 25.6

# input What do you get for O=C(NC1CCCCC1)C1c2cccc(c2)-c2ccc(cc2)OCc2cn(nn2)CCOc2ccc(cc2)CC(=O)N1c1ccc(C(F)(F)F)cc1 (centres undefined) ?
# output 37.7
